molecular target: Bromodomain-containing protein 9 (Homo sapiens, UniProt Q9H8M2); assay: Binding affinity to human BRD9 bromodomain by BROMOscan method
Sequence (Q9H8M2 whole entry): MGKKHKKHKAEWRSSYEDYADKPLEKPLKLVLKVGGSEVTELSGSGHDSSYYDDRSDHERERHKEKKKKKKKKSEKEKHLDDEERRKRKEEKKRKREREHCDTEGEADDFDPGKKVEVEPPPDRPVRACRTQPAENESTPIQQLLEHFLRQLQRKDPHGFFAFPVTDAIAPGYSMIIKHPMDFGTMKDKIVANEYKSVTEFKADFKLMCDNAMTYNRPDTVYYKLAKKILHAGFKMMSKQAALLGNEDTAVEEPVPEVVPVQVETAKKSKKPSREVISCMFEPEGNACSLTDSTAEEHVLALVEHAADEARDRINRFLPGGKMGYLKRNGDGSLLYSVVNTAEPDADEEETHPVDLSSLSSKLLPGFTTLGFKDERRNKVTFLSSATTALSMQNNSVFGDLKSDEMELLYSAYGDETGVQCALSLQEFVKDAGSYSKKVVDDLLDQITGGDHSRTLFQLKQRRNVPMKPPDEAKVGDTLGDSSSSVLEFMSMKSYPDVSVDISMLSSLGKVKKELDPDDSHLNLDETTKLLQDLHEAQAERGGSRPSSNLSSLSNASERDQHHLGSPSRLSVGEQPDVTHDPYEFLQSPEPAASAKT
READOUT_NAME: Kd

Asked: Query: Kd; subject: Cc1nnc2c(NC3CCN(CC(C)(C)F)CC3)cc(C(=O)N3[C@@H]4c5ccccc5C[C@H]3C(=O)N[C@@H]4C(C)C)nn12
Given back: > 316 nM

====

target: SWI/SNF-related matrix-associated actin-dependent regulator of chromatin subfamily A member 2 (Homo sapiens, UniProt P51531); experiment: Binding affinity to human SMARCA2 bromodomain assessed as dissociation constant by BROMOscan method
Sequence (P51531 whole entry): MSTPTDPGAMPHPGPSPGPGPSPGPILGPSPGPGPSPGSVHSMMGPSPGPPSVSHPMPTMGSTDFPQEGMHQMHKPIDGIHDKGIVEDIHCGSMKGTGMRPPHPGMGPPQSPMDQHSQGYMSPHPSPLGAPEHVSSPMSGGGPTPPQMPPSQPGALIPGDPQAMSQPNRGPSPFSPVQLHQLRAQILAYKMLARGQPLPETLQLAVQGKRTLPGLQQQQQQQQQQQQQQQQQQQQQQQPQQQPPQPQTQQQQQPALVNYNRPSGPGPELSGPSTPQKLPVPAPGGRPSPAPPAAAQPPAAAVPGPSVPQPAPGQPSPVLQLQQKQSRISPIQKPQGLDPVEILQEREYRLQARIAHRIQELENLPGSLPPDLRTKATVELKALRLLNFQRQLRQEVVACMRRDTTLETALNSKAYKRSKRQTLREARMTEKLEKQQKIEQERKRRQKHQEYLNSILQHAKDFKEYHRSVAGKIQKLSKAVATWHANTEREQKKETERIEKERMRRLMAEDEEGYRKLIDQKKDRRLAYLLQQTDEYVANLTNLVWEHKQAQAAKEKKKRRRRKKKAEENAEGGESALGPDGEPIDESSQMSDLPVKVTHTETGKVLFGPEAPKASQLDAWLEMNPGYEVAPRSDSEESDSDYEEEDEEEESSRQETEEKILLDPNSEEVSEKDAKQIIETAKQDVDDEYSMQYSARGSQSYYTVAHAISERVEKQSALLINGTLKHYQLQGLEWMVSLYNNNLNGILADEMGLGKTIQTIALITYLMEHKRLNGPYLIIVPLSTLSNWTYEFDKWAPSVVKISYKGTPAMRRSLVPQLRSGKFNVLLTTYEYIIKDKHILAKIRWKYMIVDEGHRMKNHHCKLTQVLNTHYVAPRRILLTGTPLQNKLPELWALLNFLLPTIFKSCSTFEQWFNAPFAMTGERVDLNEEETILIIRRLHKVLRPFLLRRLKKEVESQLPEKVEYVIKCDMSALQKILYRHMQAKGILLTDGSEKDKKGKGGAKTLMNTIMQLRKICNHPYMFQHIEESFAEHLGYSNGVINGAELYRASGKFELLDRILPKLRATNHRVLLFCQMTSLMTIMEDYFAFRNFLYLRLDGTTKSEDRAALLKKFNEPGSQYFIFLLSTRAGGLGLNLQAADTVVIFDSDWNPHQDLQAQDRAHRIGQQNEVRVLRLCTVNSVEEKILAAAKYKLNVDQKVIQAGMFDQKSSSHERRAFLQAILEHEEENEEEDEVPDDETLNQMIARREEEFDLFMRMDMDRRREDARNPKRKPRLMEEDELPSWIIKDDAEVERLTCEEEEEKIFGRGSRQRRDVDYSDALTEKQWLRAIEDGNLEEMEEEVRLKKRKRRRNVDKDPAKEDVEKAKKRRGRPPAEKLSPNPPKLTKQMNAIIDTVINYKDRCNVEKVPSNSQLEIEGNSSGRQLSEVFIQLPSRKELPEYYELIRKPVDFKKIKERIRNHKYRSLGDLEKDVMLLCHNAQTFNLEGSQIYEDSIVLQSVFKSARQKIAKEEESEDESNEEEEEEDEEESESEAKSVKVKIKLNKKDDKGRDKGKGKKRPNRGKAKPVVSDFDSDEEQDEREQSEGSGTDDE
READOUT_NAME: Kd

Asked: Name the recorded Kd for Cc1nnc2c(NC3CCN(CC(C)(C)F)CC3)cc(C(=O)N3[C@@H]4c5ccccc5C[C@H]3C(=O)N[C@@H]4C(C)C)nn12 .
Given back: > 3.16 µM

====

molecular target: ATPase family AAA domain-containing protein 2 (Homo sapiens); assay: Inhibition of GST-ATAD2 BD (951 to 1132 residues) (unknown origin) expressed in Escherichia coli BL21 (DE3) and biotinylated tetra-acetylated histone H4 peptides as substrate by TR-FRET artifact assay
READOUT_NAME: IC50

Asked: Sample Cc1nnc2c(NCCCN3CCCC3)cc(C(=O)N3[C@@H]4c5ccccc5C[C@H]3C(=O)N[C@@H]4C(C)C)nn12 — what was its IC50?
Given back: > 25.1 µM

Asked: Requested field: IC50. Item: Cc1nnc2c(NCCCN3CCCC3)cc(C(=O)N3[C@H]4Cc5ccccc5[C@@H]3CNC4=O)nn12
Given back: > 25.1 µM

Asked: Field request: IC50 | item: Cc1nnc2c(NC3CCN(C)CC3)cc(C(=O)N3[C@H]4Cc5ccccc5[C@@H]3CNC4=O)nn12
Given back: > 25.1 µM

Turning to the following compound.
Asked: Could you share which IC50 value was measured for COc1cc(C(=O)N2C3Cc4ccccc4C2CNC3=O)cc(OC)c1O (centres undefined) ?
Given back: > 25.1 µM

====

biological target: ATPase family AAA domain-containing protein 2 (Homo sapiens, UniProt Q6PL18); assay: Inhibition of GST-ATAD2 BD (951 to 1132 residues) (unknown origin) expressed in Escherichia coli BL21 (DE3) and biotinylated tetra-acetylated histone H4 peptides as substrate incubated for 30 mins by TR-FRET assay
Sequence (Q6PL18 whole entry, the tested form may be a part): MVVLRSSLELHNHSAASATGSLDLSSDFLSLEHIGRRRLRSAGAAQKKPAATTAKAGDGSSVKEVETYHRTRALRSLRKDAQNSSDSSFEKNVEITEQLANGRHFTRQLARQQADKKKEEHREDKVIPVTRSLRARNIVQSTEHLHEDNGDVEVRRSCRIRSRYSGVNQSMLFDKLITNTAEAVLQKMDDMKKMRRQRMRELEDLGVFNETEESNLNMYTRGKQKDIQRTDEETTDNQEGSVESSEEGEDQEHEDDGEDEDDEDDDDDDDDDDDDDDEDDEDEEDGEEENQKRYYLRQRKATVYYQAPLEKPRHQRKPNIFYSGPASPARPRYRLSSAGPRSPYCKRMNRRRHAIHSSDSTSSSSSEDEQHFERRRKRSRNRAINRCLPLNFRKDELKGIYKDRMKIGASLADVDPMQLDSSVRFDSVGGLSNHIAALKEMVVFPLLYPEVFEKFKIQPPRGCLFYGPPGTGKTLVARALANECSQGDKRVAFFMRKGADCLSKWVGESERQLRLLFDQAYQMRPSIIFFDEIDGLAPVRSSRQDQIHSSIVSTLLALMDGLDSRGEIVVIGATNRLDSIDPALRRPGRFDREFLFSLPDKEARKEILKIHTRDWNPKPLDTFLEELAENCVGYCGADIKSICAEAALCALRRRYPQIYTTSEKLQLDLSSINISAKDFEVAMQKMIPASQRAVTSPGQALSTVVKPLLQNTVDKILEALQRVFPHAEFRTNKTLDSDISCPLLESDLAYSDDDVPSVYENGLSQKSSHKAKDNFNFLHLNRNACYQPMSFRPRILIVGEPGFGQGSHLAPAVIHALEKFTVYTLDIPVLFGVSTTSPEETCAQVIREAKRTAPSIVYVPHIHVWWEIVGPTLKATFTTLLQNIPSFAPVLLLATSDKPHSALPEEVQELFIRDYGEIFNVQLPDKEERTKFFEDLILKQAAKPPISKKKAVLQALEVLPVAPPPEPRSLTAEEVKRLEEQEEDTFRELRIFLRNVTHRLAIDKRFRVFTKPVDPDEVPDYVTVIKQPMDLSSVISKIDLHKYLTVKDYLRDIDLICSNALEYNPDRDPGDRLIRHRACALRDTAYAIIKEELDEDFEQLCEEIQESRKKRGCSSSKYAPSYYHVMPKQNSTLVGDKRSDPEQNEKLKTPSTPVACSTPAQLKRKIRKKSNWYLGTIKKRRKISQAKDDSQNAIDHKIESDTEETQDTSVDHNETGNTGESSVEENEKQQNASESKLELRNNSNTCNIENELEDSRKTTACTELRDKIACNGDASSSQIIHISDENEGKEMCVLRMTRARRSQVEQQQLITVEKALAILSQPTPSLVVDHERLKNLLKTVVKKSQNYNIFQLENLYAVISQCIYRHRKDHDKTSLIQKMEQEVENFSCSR
Reported values of log10 IC50 for individual entries
Parameter value (number): base-10 log of IC50 in nM.

Asked: State its log10 IC50 on ATPase family AAA domain-containing protein 2 (Homo sapiens, UniProt Q6PL18): Cc1nnc2c(NC3CCN(CC(C)(C)F)CC3)cc(C(=O)N3[C@@H]4c5ccccc5C[C@H]3C(=O)N[C@@H]4C(C)C)nn12
Given back: 0.85

New cases:
Asked: Field: log10 IC50 (ATPase family AAA domain-containing protein 2 (Homo sapiens, UniProt Q6PL18)). Entry: Cc1nnc2c(NC3CCN(C)CC3)cc(C(=O)N3[C@H]4Cc5ccccc5[C@@H]3CNC4=O)cn12
Given back: 2.57

Asked: Please tell me: log10 IC50 of COc1cc(C(=O)N2[C@H]3Cc4ccccc4[C@@H]2CNC3=O)cc2c(C)n[nH]c12 , system ATPase family AAA domain-containing protein 2 (Homo sapiens, UniProt Q6PL18)?
Given back: 3.69

Asked: Give log10 IC50 (ATPase family AAA domain-containing protein 2 (Homo sapiens, UniProt Q6PL18)) of the following compound: Cc1nnc2c(N)cc(C(=O)N3[C@H]4Cc5ccccc5[C@@H]3CNC4=O)cn12
Given back: 3.78

Asked: Tell me reported log10 IC50 for C[C@H]1NC(=O)[C@@H]2Cc3ccccc3[C@H]1N2C(=O)c1cn(C)c(=O)c2[nH]c3ccccc3c12 , tested with ATPase family AAA domain-containing protein 2 (Homo sapiens, UniProt Q6PL18).
Given back: 2.32

Asked: Give log10 IC50 (ATPase family AAA domain-containing protein 2 (Homo sapiens, UniProt Q6PL18)) of the following compound: CNc1cc(C(=O)N2[C@H]3Cc4ccccc4[C@@H]2CNC3=O)cn(C)c1=O
Given back: 4.07

Asked: Lab note: need log10 IC50 for CC(C)[C@H]1NC(=O)[C@@H]2Cc3ccccc3[C@H]1N2C(=O)c1cn(C)c(=O)c2[nH]c3ccccc3c12 on ATPase family AAA domain-containing protein 2 (Homo sapiens, UniProt Q6PL18), anyone have it?
Given back: 2.64

Asked: Request body: readout log10 IC50, system ATPase family AAA domain-containing protein 2 (Homo sapiens, UniProt Q6PL18), query Cc1nnc2c(NCCCN3CCC(F)(F)CC3)cc(C(=O)N3[C@@H]4c5ccccc5C[C@H]3C(=O)N[C@@H]4C(C)C)nn12 . Return the value.
Given back: 1.30

====

Here the recorded IC50 is given for each entry.
target: ATPase family AAA domain-containing protein 2 (Homo sapiens); experiment: Inhibition of GST-ATAD2 BD (981 to 1108 residues) (unknown origin) expressed in Escherichia coli BL21 (DE3) and biotinylated tetra-acetylated histone H4 peptides as substrate incubated for 30 mins by TR-FRET assay
Report the figure in nM without appending any unit label.

Asked: GET /values?readout=IC50&system=ATPase family AAA domain-containing protein 2 (Homo sapiens)&item= Cc1nnc2c(NC3CCN(C)CC3)cc(C(=O)N3[C@H]4Cc5ccccc5[C@@H]3CNC4=O)nn12
Given back: 31.6

Would you kindly look at the next entry?
Asked: API: value(readout= IC50, system= ATPase family AAA domain-containing protein 2 (Homo sapiens), query= CC1=C(C#N)c2nc(N)c(C#N)c(C)c2/C1=C\c1ccc(-c2cc(C(=O)O)ccc2Cl)o1 )
Given back: 3160

====

logD values for the compounds below.
assay: Distribution coefficient, logD of compound at pH 7.4; assay type: physicochemical; conditions: octanol/water
Hey, just send me the number, nothing else.

Asked: Entry Cc1nnc2c(N)cc(C(=O)N3[C@H]4Cc5ccccc5[C@@H]3CNC4=O)cn12 : reported logD = ?
Given back: 0.1

Asked: # input compound: CNc1cc(C(=O)N2[C@H]3Cc4ccccc4[C@@H]2CNC3=O)cn(C)c1=O ; wanted: its logD
Given back: 0.5

Asked: Query: logD; subject: CC(C)[C@H]1NC(=O)[C@@H]2Cc3ccccc3[C@H]1N2C(=O)c1cn(C)c(=O)c2[nH]c3ccccc3c12
Given back: 2.6

Asked: What logD value was documented for this compound, Cc1nnc2c(NC3CCN(C)CC3)cc(C(=O)N3[C@H]4Cc5ccccc5[C@@H]3CNC4=O)cn12 ?
Given back: -0.5

Asked: Suppose we examine the compound COc1cc(C(=O)N2[C@H]3Cc4ccccc4[C@@H]2CNC3=O)cc2c(C)n[nH]c12 ; what logD value has been reported?
Given back: 2

====

assay: Distribution coefficient, logD of compound at pH 7.4; type: physicochemical; conditions: octanol/water
READOUT_NAME: logD
The answer should be written as a number, with no unit following it.

Asked: Look at this molecule and give its reported logD. Cn1cc(C(=O)N2[C@H]3Cc4ccccc4[C@@H]2CNC3=O)c2c([nH]c3ccccc32)c1=O
Given back: 2

***
Asked: Reported logD for Cc1nnc2c(NCCCN3CCCC3)cc(C(=O)N3[C@H]4Cc5ccccc5[C@@H]3CNC4=O)nn12 : what is it?
Given back: -0.3

Asked: # query: logD of entry Cc1cc(C(=O)N2[C@H]3Cc4ccccc4[C@@H]2CNC3=O)c[nH]c1=O
Given back: 0.3

Asked: For the molecule C[C@H]1NC(=O)[C@@H]2Cc3ccccc3[C@H]1N2C(=O)c1cn(C)c(=O)c2[nH]c3ccc(OC(F)(F)F)cc3c12 , what logD is on record?
Given back: 3.4

Asked: Which value of logD has been reported for C[C@H]1NC(=O)[C@@H]2Cc3ccccc3[C@H]1N2C(=O)c1cn(C)c(=O)c2[nH]c3ccccc3c12 in the records?
Given back: 1.9

Asked: So what's the measured logD for this one? Cn1cc(C(=O)N2[C@H]3Cc4ccccc4[C@@H]2CNC3=O)c2cc[nH]c2c1=O
Given back: 0.7

Asked: Bench note: what logD did CN1C[C@H]2c3ccccc3C[C@@H](C1=O)N2C(=O)c1cn(C)c(=O)c2[nH]ccc12 show?
Given back: 0.9

====

Measured logD by item
test: Distribution coefficient, logD of compound at pH 7.4; format: physicochemical; details: octanol/water

Asked: What value of measured logD is listed for Cn1cc(C(=O)N2[C@H]3Cc4ccccc4[C@@H]2CNC3=O)cc(N)c1=O ?
Given back: 0

====

test: Distribution coefficient, logD of compound at pH 7.4; format: physicochemical; conditions: octanol/water
READOUT_NAME: logD
Reply briefly: the number, and no unit.

In the examples that follow, each entry is paired with its recorded logD.
Asked: logD for Cc1nnc2c(NCCCN3CCC(F)(F)CC3)cc(C(=O)N3[C@@H]4c5ccccc5C[C@H]3C(=O)N[C@@H]4C(C)C)nn12 ?
Given back: 3

Asked: Name the reported logD value associated with the compound CO[C@H]1CNC[C@@H](OCC2CCC(F)(F)CC2)[C@@H]1Nc1ncc(-c2cncc(C)c2)c2cc(C)c(=O)[nH]c12
Given back: 2.7

Asked: Which logD is reported for this compound? COc1cc(C(=O)N2C3Cc4ccccc4C2CNC3=O)cc(OC)c1O (stereo not given)
Given back: 0.9

Asked: Endpoint output: logD of Cc1nnc2c(NC3CCN(C)CC3)cc(C(=O)N3[C@H]4Cc5ccccc5[C@@H]3CNC4=O)nn12 . Value?
Given back: 0.2

Asked: # logD lookup, item Cc1nnc2c(NCCCN3CCCC3)cc(C(=O)N3[C@@H]4c5ccccc5C[C@H]3C(=O)N[C@@H]4C(C)C)nn12
Given back: 0.5

Further cases:
Asked: What does the record list as logD for Cc1nnc2c(NC3CCN(CC(C)(F)F)CC3)cc(C(=O)N3[C@@H]4c5ccccc5C[C@H]3C(=O)N[C@@H]4C(C)C)nn12 ?
Given back: 3

Asked: Which logD reading was recorded for the compound COc1cc(C(=O)N2[C@H]3Cc4ccccc4[C@@H]2CNC3=O)cc(OC)c1O ?
Given back: 0.9

Asked: Dear colleague, I am looking for the recorded logD of the following compound: Cc1nnc2c(N)cc(C(=O)N3[C@H]4Cc5ccccc5[C@@H]3CNC4=O)nn12
Given back: 0.8

Asked: Look at this compound and give its reported logD. Cc1nnc2c(NC3CCN(C)CC3)nc(C(=O)N3[C@H]4Cc5ccccc5[C@@H]3CNC4=O)cn12
Given back: -0.3

Asked: What does the record list as logD for Cc1nnc2c(NC3CCN(CC(C)(C)F)CC3)cc(C(=O)N3[C@@H]4c5ccccc5C[C@H]3C(=O)N[C@@H]4C(C)C)nn12 ?
Given back: 3
